Reference source for all entries: patent US20240217951A1

- assay-target: GSK3β (Glycogen synthase kinase-3 beta) (Homo sapiens)
- Sequence (P49841 whole entry): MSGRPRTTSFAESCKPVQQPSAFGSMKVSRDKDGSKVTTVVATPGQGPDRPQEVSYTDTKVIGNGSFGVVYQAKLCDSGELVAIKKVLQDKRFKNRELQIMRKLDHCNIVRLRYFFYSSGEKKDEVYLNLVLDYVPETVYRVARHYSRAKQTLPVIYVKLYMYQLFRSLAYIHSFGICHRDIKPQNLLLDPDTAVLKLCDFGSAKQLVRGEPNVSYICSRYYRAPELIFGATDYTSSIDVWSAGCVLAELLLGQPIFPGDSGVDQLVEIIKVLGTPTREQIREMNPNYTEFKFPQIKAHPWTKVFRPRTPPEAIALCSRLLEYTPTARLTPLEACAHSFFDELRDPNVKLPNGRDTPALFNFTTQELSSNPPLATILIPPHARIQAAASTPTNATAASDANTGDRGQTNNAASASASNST
- experiment-description: Assay 6 - GSK3β assay (ThermoFisher Z-Lyte)
- Format: biochemical
- settings: geometric mean; ATP Conc: 10 μM; read-out: Assay 6 (GSK3β FRET-Z-Lyte CR) GMean IC50 (μM) ATP Conc: 10
metric: IC50

The cases that follow already have their IC50 on record.
input-smiles | IC50
CN1CCN(c2ccc(=O)n(-c3ccc(N[C@H]4CC[C@H](Nc5cnc(OC(F)F)cn5)C4)nc3)c2)CC1 | 0.498 µM
Nc1ccc2ncc(N[C@H]3CC[C@H](Nc4ccc(-n5ccccc5=O)cn4)C3)nc2n1 | > 10 µM
Cc1cnc(N[C@H]2CC[C@H](Nc3ccc(-n4c(=O)n(C)c5ccccc54)cn3)C2)cn1 | > 10 µM

**Q:** Identify measured IC50 associated with `COc1ccc(=O)n(-c2ccc(N[C@H]3CC[C@H](Nc4cnc(OC(F)F)cn4)C3)nc2)c1`
**A:** 0.115 µM

**Q:** Identify measured IC50 associated with `Cc1ncc(N[C@H]2CC[C@H](Nc3ccc(-n4cccc(C#N)c4=O)cn3)C2)nc1C`
**A:** > 10 µM

**Q:** Identify measured IC50 associated with `Cc1cnc(N[C@H]2CC[C@H](Nc3ccc(-n4nc(C)ccc4=O)cn3)C2)cn1`
**A:** > 10 µM
